Source of measurements: patent US20220339143A1

Experiment: Single dose PK in patients with narcolepsy (Cohorts 5, 6 and 7), plasma
Format: in vivo, human
Conditions: human, plasma, intravenous, 5 mg, Cmpd A 5 mg; Median; Cohort 5, 6, 7
measured.attribute: Tmax (h)
One number for each entry, in h.

Value lookup for Tmax; key = COC(=O)N1CCC[C@H](NS(C)(=O)=O)[C@@H]1CO[C@H]1CC[C@@H](c2ccccc2)CC1
9

* * *

Test: Single dose PK in patients with narcolepsy (Cohorts 5, 6 and 7), plasma
Type: in vivo, human
Conditions: human, plasma, iv, 11.2 mg; 2 hr; NT1, single 9 h IV infusion; read-out: Plasma concentration, Median
measured.attribute: concentration at 2 h (ng/mL)
Numbers only, in ng/mL.

Value lookup for concentration at 2 h; key = COC(=O)N1CCC[C@H](NS(C)(=O)=O)[C@@H]1CO[C@H]1CC[C@@H](c2ccccc2)CC1
17.1

* * *

Test: Single dose PK in healthy subjects (Cohorts 1, 2, S1 and S2), plasma
Type: in vivo, human
Details: human, plasma, intravenous, 134.4 mg; 1 hr; read-out: Plasma concentration, Q3
measured.attribute: concentration at 1 h (ng/mL)
One number for each entry, in ng/mL.

Value lookup for concentration at 1 h; key = COC(=O)N1CCC[C@H](NS(C)(=O)=O)[C@@H]1CO[C@H]1CC[C@@H](c2ccccc2)CC1
216

* * *

Experiment: Single dose PK in healthy subjects (Cohorts 1, 2, S1 and S2), plasma
Type: in vivo, human
Details: human, plasma, iv, 240 mg, 240 mg single IV infusion; 0.5 hr; read-out: Plasma Concentration of Cmpd A, Q3
measured.attribute: concentration at 0.5 hr
Please answer in the form of a number followed by its unit of measurement.

Value lookup for concentration at 0.5 hr; key = COC(=O)N1CCC[C@H](NS(C)(=O)=O)[C@@H]1CO[C@H]1CC[C@@H](c2ccccc2)CC1
368 ng/mL

* * *

Assay: Single dose PK in healthy subjects (Cohorts 1, 2, S1 and S2), plasma
Type: in vivo, human
Details: human, plasma, iv, 240 mg, 240 mg single IV infusion, healthy subjects; read-out: AUClast Median
measured.attribute: AUC(0-t) (ng·h/mL)
One number for each entry, in ng·h/mL.

Value lookup for AUC(0-t); key = COC(=O)N1CCC[C@H](NS(C)(=O)=O)[C@@H]1CO[C@H]1CC[C@@H](c2ccccc2)CC1
4400

* * *

Experiment: Single dose PK in healthy subjects (Cohorts 1, 2, S1 and S2), plasma
Type: in vivo, human
Conditions: human, plasma, intravenous, 56 mg; 3 hr; read-out: Plasma concentration, Q3
measured.attribute: concentration at 3 h (ng/mL)
Give bare numbers, in ng/mL.

Value lookup for concentration at 3 h; key = COC(=O)N1CCC[C@H](NS(C)(=O)=O)[C@@H]1CO[C@H]1CC[C@@H](c2ccccc2)CC1
131

* * *

Assay: Multiple-dose PK of intravenous Compound A in patients with NT1 (Cohorts B1, B2), plasma
Assay type: in vivo, human
Settings: human, plasma, intravenous; 11 mg; Day 1; read-out: Vz, Mean
measured.attribute: Vd
Please answer in the form of a number followed by its unit of measurement.

Value lookup for Vd; key = COC(=O)N1CCC[C@H](NS(C)(=O)=O)[C@@H]1CO[C@H]1CC[C@@H](c2ccccc2)CC1
310 L
